- Test system: Salmonella typhimurium
- protocol: Genotoxicity against Salmonella typhimurium TA100 assessed as fold increase in revertants at 0.156 mg/ml after 90 mins by Ames MPF test in presence of S9 fraction relative to baseline
- Format: toxicity, organism-based
- assay context: salmonella enterica subsp. enterica serovar typhimurium, s9, 1.5 h
Quick rule for you: fold change (FC) under 0.6 gets yes (1), anything else gets no (0).

Q: Hi there! Is fold change (FC) for Cn1nnnc1SCC(=O)N/N=C/c1ccccc1[N+](=O)[O-] below 0.6, do you know?
Ans: no (0)

Q: Is it true that fold change (FC) reported for CN(C)c1ccc(/C=N/NC(=O)CSc2nnnn2C)cc1 is less than 0.6?
Ans: yes (1)

Q: Please indicate whether the reported fold change (FC) of Cn1nnnc1SCC(=O)N/N=C/c1ccccc1F is strictly below 0.6.
Ans: no (0)

Q: Below 0.6 on fold change (FC)? Entry Cn1nnnc1SCC(=O)N/N=C/c1ccc(O)cc1
Ans: no (0)

Q: # TODO verify fold change (FC) < 0.6 strictly for this compound: COc1ccc(/C=N/NC(=O)CSc2nnnn2C)cc1
Ans: yes (1)

---

- protocol: Genotoxicity against Salmonella typhimurium TA1535/pSK1002 assessed as induction ratio at 1.25 mg/ml by umuC assay in presence of S9 fraction
- Type: toxicity, organism-based
- assay context: salmonella enterica subsp. enterica serovar typhimurium, Salmonella typhimurium TA1535/pSK1002 with S9 fraction
Label Y for high-side fold induction at 1.25 mg/ml (at or above 0.7) and N for low-side fold induction at 1.25 mg/ml (below it).

Q: # bool: fold induction at 1.25 mg/ml of CN(C)c1ccc(/C=N/NC(=O)CSc2nnnn2C)cc1 >= 0.7
Ans: N

Q: Is reported fold induction at 1.25 mg/ml greater than or equal to 0.7 here: Cn1nnnc1SCC(=O)N/N=C/c1ccccc1[N+](=O)[O-]
Ans: Y

Q: Decide: is the reported value of fold induction at 1.25 mg/ml for Cn1nnnc1SCC(=O)N/N=C/c1ccccc1F equal to or greater than 0.7?
Ans: N

Q: Given COc1ccc(/C=N/NC(=O)CSc2nnnn2C)cc1 , state whether its fold induction at 1.25 mg/ml is at least 0.7.
Ans: Y

---

I'd be grateful if you could share measured MIC for these entries.
- Test system: Nakaseomyces glabratus
- protocol: Antifungal activity against Candida glabrata Anadolu University clinical isolate after 24 hrs by microdilution susceptibility assay
- Format: functional

// field: MIC; key: COc1ccc(/C=N/NC(=O)CSc2nnnn2C)cc1 ; value = 125 µg/mL

Given item Cn1nnnc1SCC(=O)N/N=C/c1ccccc1F , the value recorded as its MIC is 250 µg/mL

Entry Cn1nnnc1SCC(=O)N/N=C/c1ccccc1[N+](=O)[O-] ; MIC = 250 µg/mL

The reported MIC of the molecule Cc1ccc(/C=N/NC(=O)CSc2nnnn2C)cc1 was > 8000 µg/mL

So for C/C(=N\NC(=O)CSc1nnnn1C)c1cc(Cl)ccc1Cl , the logged MIC turned out to be > 8000 µg/mL

Just so you know, measured MIC for C/C(=N\NC(=O)CSc1nnnn1C)c1ccc(Cl)cc1Cl came out at > 8000 µg/mL

The molecule listed as COc1cccc(/C=N/NC(=O)CSc2nnnn2C)c1 has a reported MIC of > 8000 µg/mL

// MIC lookup, molecule = Cn1nnnc1SCC(=O)N/N=C/c1cccc([N+](=O)[O-])c1 , result: > 8000 µg/mL

Form: molecule = C/C(=N\NC(=O)CSc1nnnn1C)c1ccc(Cl)cc1 ; MIC = > 8000 µg/mL

Briefly, MIC measured for Cn1nnnc1SCC(=O)N/N=C/c1ccccc1Br : > 8000 µg/mL

So, Cn1nnnc1SCC(=O)N/N=C/c1cccc(Cl)c1 ? Its MIC was > 8000 µg/mL

Per the records, this molecule ( Cn1nnnc1SCC(=O)N/N=C/c1ccc(Cl)cc1Cl ) has MIC equal to > 8000 µg/mL
